species: Rattus norvegicus; assay: Time over 100 ng/ml in fasted rats; conditions: in vivo
Assay Readout: Time over 100ng/ml (h)
Numbers only, in h.

Smiles Repr	Value Unit	Time over 100ng/ml
CCCOc1ccc(S(=O)(=O)N2C[C@@H](N3CCOCC3)C[C@@H]2C(=O)NO)cc1	h	4.5

Could you tell me Time over 100ng/ml for each of these compounds? They are listed below.
1. CCCCOc1ccc(S(=O)(=O)N2C[C@@H](N3C(=O)CN(C)C3=O)C[C@@H]2C(=O)NO)cc1
2. COCCOc1ccc(S(=O)(=O)N2C[C@@H](N3C(=O)CN(C)C3=O)C[C@@H]2C(=O)NO)cc1

1. 0
2. 0

Could you tell me Time over 100ng/ml for each of these compounds? They are listed below.
1. CCCCOc1ccc(S(=O)(=O)N2C[C@@H](N3CCOCC3)C[C@@H]2C(=O)NO)cc1
2. C=CCN1CC(=O)N([C@H]2C[C@H](C(=O)NO)N(S(=O)(=O)c3ccc(OCCCC)cc3)C2)C1=O
3. COc1ccc(S(=O)(=O)N2C[C@@H](N(Cc3cccnc3)S(C)(=O)=O)C[C@@H]2C(=O)NO)cc1

1: 3.5; 2: 4; 3: 0

----------
Target chain: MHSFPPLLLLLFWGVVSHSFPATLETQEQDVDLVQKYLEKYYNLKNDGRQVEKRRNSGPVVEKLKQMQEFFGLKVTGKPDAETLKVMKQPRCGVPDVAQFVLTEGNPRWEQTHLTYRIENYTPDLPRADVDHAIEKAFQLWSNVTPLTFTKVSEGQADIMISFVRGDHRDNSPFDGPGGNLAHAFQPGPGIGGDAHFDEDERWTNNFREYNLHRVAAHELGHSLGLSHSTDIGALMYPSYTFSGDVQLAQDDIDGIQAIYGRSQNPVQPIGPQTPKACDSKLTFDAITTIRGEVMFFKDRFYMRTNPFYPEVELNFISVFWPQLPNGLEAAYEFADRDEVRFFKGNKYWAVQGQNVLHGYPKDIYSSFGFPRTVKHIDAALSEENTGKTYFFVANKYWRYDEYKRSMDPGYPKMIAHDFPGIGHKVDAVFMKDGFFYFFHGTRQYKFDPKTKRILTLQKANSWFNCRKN
Assay Readout: pIC50
One number for each entry, as −log10 of the molar value.

Would you please look over these solved cases?
Compound	pIC50
CCCN(C(=O)[C@@H](O)CCc1ccccc1)[C@H]1C[C@H](C(=O)NO)N(S(=O)(=O)c2ccc(OC)cc2)C1	6.59
CCCCOc1ccc(S(=O)(=O)N2C[C@@H](NC(=O)[C@@H](O)CC(C)C)C[C@@H]2C(=O)NO)cc1	6.36
COCCOc1ccc(S(=O)(=O)N2C[C@@H](N3C(=O)CN(C)C3=O)C[C@@H]2C(=O)NO)cc1	5.74
CCCCOc1ccc(S(=O)(=O)N2C[C@@H](NC(=O)COC)C[C@@H]2C(=O)NO)cc1	5.92
COc1ccc(S(=O)(=O)N2C[C@@H](N(Cc3cccnc3)C(=O)C(C)C)C[C@@H]2C(=O)NO)cc1	6.57
COc1ccc(S(=O)(=O)N2C[C@@H](NCCc3ccccc3)C[C@@H]2C(=O)NO)cc1	6.25

Could you tell me pIC50 for each of these compounds? They are listed below.
1. C=CCN1CC(=O)N([C@H]2C[C@H](C(=O)NO)N(S(=O)(=O)c3ccc(OCCOC)cc3)C2)C1=O
2. C=CCN1CC(=O)N([C@H]2C[C@H](C(=O)NO)N(S(=O)(=O)c3ccc(OCCC)cc3)C2)C1=O
3. COc1ccc(S(=O)(=O)N[C@H]2C[C@H](C(=O)NO)N(S(=O)(=O)c3ccc(OC)cc3)C2)cc1
4. CCCCOc1ccc(S(=O)(=O)N2C[C@@H](N)C[C@@H]2C(=O)NO)cc1
5. O=C(NO)[C@H]1C[C@H](N2CCOCC2)CN1S(=O)(=O)c1ccc(Oc2ccccc2)cc1
6. O=C(NO)[C@H]1C[C@H](N2CCCCC2)CN1S(=O)(=O)c1ccc(Oc2ccccc2)cc1

1: 5.54; 2: 6.46; 3: 6.46; 4: 6.42; 5: 7.72; 6: 7.77

Could you tell me pIC50 for each of these compounds? They are listed below.
1. CCCCOc1ccc(S(=O)(=O)N2C[C@@H](NS(C)(=O)=O)C[C@@H]2C(=O)NO)cc1
2. COc1ccc(S(=O)(=O)N2C[C@@H](N3CCCS3(=O)=O)C[C@@H]2C(=O)NO)cc1
3. CS(=O)(=O)N[C@H]1C[C@H](C(=O)NO)N(S(=O)(=O)c2ccc(Oc3ccncc3)cc2)C1

1: 5.89; 2: 7.38; 3: 6.35
